Reported melting point values are given for each entry in this list.
reported.endpoint: melting point

compound="CCSc1c(-c2nc3cc(C(F)(F)F)cnc3n2C)nc2cnc(C(F)(F)F)cn12 [1-1-029b]" reported_endpoint="melting point" measured="220 to 222 °C"
compound="CCSc1c(-c2nc3cc(C(F)(F)F)cnc3s2)nc2cc(C(F)(F)F)ccn12 [1-13-001b]" reported_endpoint="melting point" measured="150 to 160 °C"
compound="CCSc1c(-c2nc3cc(I)cnc3n2C)nc2cc(C(F)(F)F)ccn12 [1-1-026b]" reported_endpoint="melting point" measured="230 to 233 °C"
compound="CCSc1c(-c2nc3nc(C(F)(F)F)ccc3n2C)nc2cc(C(F)(F)F)ccn12 [1-7-001b]" reported_endpoint="melting point" measured="164 to 166 °C"
compound="CCCCC(CC)COC(=O)CCSc1cnc2c(c1)nc(-c1nc3cc(C(F)(F)F)ccn3c1SCC)n2C (centres unmarked) [1-1-028b]" reported_endpoint="melting point" measured="94 to 96 °C"

---

Test system: Plutella xylostella
Assay: Insecticidal test on Plutella xylostella (cabbage leaves soaked)
Type: in vivo
Conditions: 144 h, 500 ppm solution, 3rd-instar larvae, 6 days after, 25° C.
Reported mortality at 500 ppm values are given for each entry in this list.
reported.endpoint: mortality at 500 ppm

compound="CCSc1c(-c2nc3cc(C(F)(F)F)cnc3n2C)nc2cc(C(F)(F)F)ccn12 [1-1-002b]" experimental_target="Plutella xylostella" reported_endpoint="mortality at 500 ppm" measured="≥ 90%"
compound="CCS(=O)(=O)c1c(-c2nc3cc(C(F)(F)F)ncc3n2C)nc2cc(C(F)(F)F)ccn12 [1-8-005a]" experimental_target="Plutella xylostella" reported_endpoint="mortality at 500 ppm" measured="≥ 90%"
compound="CCS(=O)(=O)c1c(-n2cc3cnc(C(F)(F)F)cc3n2)nc2cc(C(F)(F)F)ccn12 [1-11-001a]" experimental_target="Plutella xylostella" reported_endpoint="mortality at 500 ppm" measured="≥ 90%"
compound="CCS(=O)(=O)c1c(-c2cn3ccc(C(F)(F)F)cc3n2)nc2ccc(C(F)(F)F)cn12 [1-5-002a]" experimental_target="Plutella xylostella" reported_endpoint="mortality at 500 ppm" measured="≥ 90%"
compound="CCS(=O)(=O)c1c(-c2cn3ncc(C(F)(F)F)cc3n2)nc2cc(C(F)(F)F)ccn12 [1-4-001a]" experimental_target="Plutella xylostella" reported_endpoint="mortality at 500 ppm" measured="≥ 90%"
compound="CCS(=O)(=O)c1c(-c2cn3cnc(C(F)(F)C(F)(F)F)cc3n2)nc2ccc(C(F)(F)F)cn12 [1-3-008a]" experimental_target="Plutella xylostella" reported_endpoint="mortality at 500 ppm" measured="≥ 90%"
